Can you tell me nuclei count for the items I'm about to list?
- assay.overview: endothelial E-selectin expression blockers – imaging, HUVEC, immunofluorescence, MLSMR starter and 10KST1 sets, primary screen (AID 487);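 note: 100% = median nuclei count of all wells on the same plate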
- assay.conditions: HUVEC TNFalpha-induced E-selectin immunofluorescence imaging, at 2 µM; measured here: cell number, toxicity
Answers are plain numbers, in %.

Use the examples below as a reference point.
The compound listed as COC(=O)c1[nH]c(C)c(/C(O)=C2\C(=O)C(=O)N(CCN(C)C)C2c2ccccc2OC)c1C (stereo not given) shows nuclei count equal to 103

The compound listed as O=S(=O)(NCCc1ccccc1F)c1cccc(S(=O)(=O)N2CCOCC2)c1 shows nuclei count equal to 110

The compound listed as Cc1cc(C)cc(NC(=O)N2CCC(c3nc4ccccc4o3)CC2)c1 shows nuclei count equal to 110

The compound listed as COC(=O)c1[nH]c2c(c1C)C(=O)CC(c1cccs1)C2 (stereo not given) shows nuclei count equal to 134

The compound listed as CCn1cc(C(=O)O)c(=O)c2cnc(N3CCNCC3)nc21 shows nuclei count equal to 127

Give me nuclei count for each of these compounds, listed below.
1. CCOC(=O)CN1C2=NCCN2c2ccccc21
2. O=C(COc1ccccc1Cl)OCC(=O)N1CCN(S(=O)(=O)c2ccccc2)CC1
3. COC(=O)c1cccc(S(=O)(=O)N2CCN(c3nc4ccccc4s3)CC2)c1
4. CCOC(=O)CSc1nc2ccccc2c(=O)n1CCN1CCOCC1
5. COc1ccc(C(CNC(=O)CN2C(=O)NC3(CC(C)CC(C)(C)C3)C2=O)N2CCOCC2)cc1 (stereo not given)

1: 125; 2: 119; 3: 80.7; 4: 109; 5: 115
